The measurements presented in this section are drawn from patent US10280169B2.

Data export: pIC50 values recorded with BTK (Homo sapiens).
Sequence (Q06187 whole entry): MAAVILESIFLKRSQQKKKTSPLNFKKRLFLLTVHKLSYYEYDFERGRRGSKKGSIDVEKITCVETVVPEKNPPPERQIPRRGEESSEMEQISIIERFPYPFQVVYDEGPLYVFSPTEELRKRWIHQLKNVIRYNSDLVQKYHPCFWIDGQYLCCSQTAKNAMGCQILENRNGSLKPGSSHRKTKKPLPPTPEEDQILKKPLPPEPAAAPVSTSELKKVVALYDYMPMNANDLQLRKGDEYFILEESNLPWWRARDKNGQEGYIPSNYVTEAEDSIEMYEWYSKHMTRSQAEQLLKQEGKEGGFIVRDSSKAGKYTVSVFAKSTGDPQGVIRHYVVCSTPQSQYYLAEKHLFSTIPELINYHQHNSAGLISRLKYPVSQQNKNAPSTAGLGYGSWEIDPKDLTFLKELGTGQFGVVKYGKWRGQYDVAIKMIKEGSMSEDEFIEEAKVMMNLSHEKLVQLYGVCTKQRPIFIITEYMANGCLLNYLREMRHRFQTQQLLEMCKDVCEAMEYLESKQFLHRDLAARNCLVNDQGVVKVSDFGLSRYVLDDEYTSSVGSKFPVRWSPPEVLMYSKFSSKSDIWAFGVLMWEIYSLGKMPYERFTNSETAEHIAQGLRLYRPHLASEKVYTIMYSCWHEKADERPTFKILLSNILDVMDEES
pIC50: −log10 of the molar value.

CC(C)c1csc(C(=O)NC2CCCc3cc(-c4ncnc5[nH]ncc45)ccc32)n1 (stereo not shown)    7.00 to 8.00
O=C(NCc1ccc(-c2ncnc3[nH]ccc23)cn1)c1cc2c(s1)CCCC2    7.00 to 8.00
CC(C)(C)C1CCC(C(=O)NC2CCCc3cc(-c4ncnc5[nH]ncc45)ccc32)CC1 (stereo not shown)    6.00 to 7.00
Cc1cc(-c2ncnc3cc(C4=CCN(C(=O)N(C)C)CC4)[nH]c23)ccc1CNC(=O)c1ncc(C(C)(C)C)s1    > 8.00
Cc1cc(-c2ncnc3[nH]ncc23)ccc1C(C)NC(=O)c1nc2c(s1)CCCC2 (stereo not shown)    7.00 to 8.00
CC(C)(C)c1ccc(C(=O)NCc2ccc(-c3ncnc4[nH]ccc34)cc2)nc1    6.00 to 7.00
Cc1cc(CNC(=O)c2ccc(C(C)(C)C)cc2)ccc1-c1ncnc2[nH]ccc12    5.00 to 6.00
O=C(N[C@@H]1CCCc2cc(-c3ncnc4[nH]ncc34)ccc21)c1cc2c(s1)CCCC2    7.00 to 8.00
CC(C)(C)c1nnc(C(=O)NC2CCCc3cc(-c4ncnc5[nH]ncc45)ccc32)s1 (stereo not shown)    6.00 to 7.00
O=C(NCc1ccc(-c2ncnc3[nH]ccc23)cc1)c1nc2c(s1)CCCC2    7.00 to 8.00

Form field pIC50, entry Cc1c(-c2ncnc3[nH]ccc23)ccc2c1CCCC2NC(=O)c1ccc(C(C)(C)C)cc1 (stereo not shown) : 5.00 to 6.00

Form field pIC50, entry O=C(NC1CCCc2cc(-c3ncnc4[nH]ncc34)ccc21)c1ccc(C(F)(F)F)cc1 (stereo not shown) : 7.00 to 8.00

Form field pIC50, entry Cc1cc(-c2ncnc3cc[nH]c23)ccc1C(C)NC(=O)c1cc2c(s1)CCCC2 (stereo not shown) : 7.00 to 8.00

Form field pIC50, entry Cc1nc(C(=O)NC2CCCc3cc(-c4ncnc5[nH]ncc45)ccc32)sc1C (stereo not shown) : 6.00 to 7.00

Form field pIC50, entry O=C(NC1CCCc2cc(-c3ncnc4[nH]ncc34)ccc21)c1nc2c(s1)CCCC2 (stereo not shown) : 7.00 to 8.00

Form field pIC50, entry CC(C)(C)c1ccc(C(=O)NCc2ccc(-c3ncnc4[nH]ccc34)cc2C(F)(F)F)cc1 : 7.00 to 8.00
